Experiment: in vitro
Details: rat, L6 cells versus Leishmania donovani MHOM/ET/67/L82
Description: Selectivity index, ratio of IC50 for rat L6 cells to IC50 for Leishmania donovani MHOM/ET/67/L82
Would you please tag the item True when its selectivity ratio is 10 or above, and False when it is below?

smiles-data: O=C(Cn1cnc([N+](=O)[O-])n1)NCc1ccc(C(F)(F)F)cc1
group-label: True
--
smiles-data: O=C(Cn1cnc([N+](=O)[O-])n1)Nc1cccc(OCc2ccccc2)c1
group-label: True
--
smiles-data: O=C(CCn1cnc([N+](=O)[O-])n1)Nc1ccc(Oc2ccc(Cl)cc2)cc1
group-label: True
--
smiles-data: O=C(CCn1cnc([N+](=O)[O-])n1)Nc1ccc(Oc2ccccc2)cc1
group-label: True
--
smiles-data: CN(C(=O)Cn1cnc([N+](=O)[O-])n1)c1ccc(C(F)(F)F)cc1
group-label: False

----------
Test system: Trypanosoma brucei rhodesiense
Experiment: Substrate activity at Trypanosoma brucei rhodesiense recombinant His-tagged type 1 nitroreductase assessed as enzyme specific activity using NADH at 100 uM by spectrophotometrically
The source made the active and inactive calls. The rule behind the calls is not given here.
outcome-measure: Activity

smiles-data: O=C(CCn1cnc([N+](=O)[O-])n1)Nc1ccc(Oc2ccccc2)cc1
outcome-measure: Activity
value-measured: Active
--
smiles-data: O=C(Cn1cnc([N+](=O)[O-])n1)Nc1cc(-c2ccc(F)cc2)on1
outcome-measure: Activity
value-measured: Active
--
smiles-data: O=C(CCn1cnc([N+](=O)[O-])n1)Nc1cccc(OCc2ccccc2)c1
outcome-measure: Activity
value-measured: Active
--
smiles-data: O=C(Cn1cnc([N+](=O)[O-])n1)Nc1cc(-c2ccc(Cl)cc2)no1
outcome-measure: Activity
value-measured: Active
--
smiles-data: O=C(CCn1cnc([N+](=O)[O-])n1)Nc1ccc(Oc2ccc(F)cc2)cc1
outcome-measure: Activity
value-measured: Active
--
smiles-data: O=C(CCn1cnc([N+](=O)[O-])n1)Nc1cc(-c2ccc(Cl)cc2)no1
outcome-measure: Activity
value-measured: Active
--
smiles-data: O=C(CCn1cnc([N+](=O)[O-])n1)Nc1cccc(-c2ccccc2)c1
outcome-measure: Activity
value-measured: Active
--
smiles-data: O=C(CCn1cnc([N+](=O)[O-])n1)Nc1ccc(Oc2ccc(Cl)cc2)cc1
outcome-measure: Activity
value-measured: Active

----------
Assay: Dissociation constant, pKa of the compound
outcome-measure: pKa

smiles-data: O=C(Cn1cnc([N+](=O)[O-])n1)Nc1cccc(OCc2ccccc2)c1
outcome-measure: pKa
value-measured: 12.8

smiles-data: O=C(CCn1cnc([N+](=O)[O-])n1)Nc1cccc(-c2ccccc2)c1
outcome-measure: pKa
value-measured: 14

smiles-data: O=C(CCn1cnc([N+](=O)[O-])n1)Nc1cc(-c2ccc(F)cc2)on1
outcome-measure: pKa
value-measured: 11.2

smiles-data: O=C(Cn1cnc([N+](=O)[O-])n1)Nc1cc(-c2ccc(F)cc2)on1
outcome-measure: pKa
value-measured: 11

smiles-data: O=C(CCn1cnc([N+](=O)[O-])n1)Nc1ccc(Oc2ccc(F)cc2)cc1
outcome-measure: pKa
value-measured: 14.5

smiles-data: N#Cc1ccc(-c2ccc(NC(=O)CCn3cnc([N+](=O)[O-])n3)cc2)cc1
outcome-measure: pKa
value-measured: 14.1

smiles-data: O=C(Cn1cnc([N+](=O)[O-])n1)Nc1ccc(Oc2ccccc2)cc1
outcome-measure: pKa
value-measured: 13.3

smiles-data: O=C(Cn1cnc([N+](=O)[O-])n1)NCc1ccc(C(F)(F)F)cc1
outcome-measure: pKa
value-measured: 12.7

smiles-data: O=C(CCn1cnc([N+](=O)[O-])n1)Nc1ccc(Oc2ccc(Cl)cc2)cc1
outcome-measure: pKa
value-measured: 14.5

smiles-data: O=C(CCn1cnc([N+](=O)[O-])n1)Nc1cc(-c2ccc(Cl)cc2)no1
outcome-measure: pKa
value-measured: 9.14

smiles-data: O=C(Cn1cnc([N+](=O)[O-])n1)Nc1ccc(Oc2ccc(Cl)cc2)cc1
outcome-measure: pKa
value-measured: 13.6

smiles-data: O=C(CCn1cnc([N+](=O)[O-])n1)Nc1cccc(OCc2ccccc2)c1
outcome-measure: pKa
value-measured: 14

smiles-data: N#Cc1ccc(-c2ccc(NC(=O)Cn3cnc([N+](=O)[O-])n3)cc2)cc1
outcome-measure: pKa
value-measured: 13.2

smiles-data: O=C(CCn1cnc([N+](=O)[O-])n1)Nc1ccc(Oc2ccccc2)cc1
outcome-measure: pKa
value-measured: 14.5

smiles-data: O=C(Cn1cnc([N+](=O)[O-])n1)Nc1ccc(Oc2ccc(F)cc2)cc1
outcome-measure: pKa
value-measured: 13.6
